Entries and their pIC50 values follow.
molecular target: Solute carrier family 2, facilitated glucose transporter member 1 (Homo sapiens, UniProt P11166); experiment: [3H]-2-Deoxy-D-glucose ([3H]-2-DG) Uptake Assay
Sequence (P11166 whole entry): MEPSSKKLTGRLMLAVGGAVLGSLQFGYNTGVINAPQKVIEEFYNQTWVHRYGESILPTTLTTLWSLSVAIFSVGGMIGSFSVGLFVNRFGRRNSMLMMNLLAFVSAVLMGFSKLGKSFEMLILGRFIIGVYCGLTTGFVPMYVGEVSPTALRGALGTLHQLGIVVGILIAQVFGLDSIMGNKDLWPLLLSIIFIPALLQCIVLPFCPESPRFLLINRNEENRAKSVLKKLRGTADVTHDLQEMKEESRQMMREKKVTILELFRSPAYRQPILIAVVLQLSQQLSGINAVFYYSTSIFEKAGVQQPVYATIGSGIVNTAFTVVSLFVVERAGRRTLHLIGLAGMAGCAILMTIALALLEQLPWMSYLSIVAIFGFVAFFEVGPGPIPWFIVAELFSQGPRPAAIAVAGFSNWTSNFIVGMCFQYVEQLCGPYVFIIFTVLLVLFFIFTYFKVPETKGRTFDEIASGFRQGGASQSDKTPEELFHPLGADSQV
pIC50 field: float, defined as -log10 of concentration (mol/L).

Form: compound = `O=C(CCc1ccc(O)cc1)c1c(O)cc(O)cc1O[C@H]1O[C@@H](CO)[C@H](O)[C@@H](O)[C@@H]1O` ; pIC50 = 4.64

Form: compound = `NNc1nc(NCc2ccco2)c2nc[nH]c2n1` ; pIC50 = 4.57

Form: compound = `c1ccc(CNc2ncnc3n[nH]nc23)cc1` ; pIC50 = 4.52

Form: compound = `CC[C@@H]1O[C@H](c2cc(O)cc(/C=C/c3ccc(O)c(O)c3)c2)[C@@H](O)[C@H](O)[C@H]1O` ; pIC50 = 4.42

Form: compound = `O=c1[nH]c(=O)c2ncn(-c3ccccc3)c2[nH]1` ; pIC50 = 4.23

Form: compound = `O=c1[nH]ncc2c1Sc1cn[nH]c(=O)c1S2` ; pIC50 = 4.93

Form: compound = `O=c1[nH][nH]c(=O)c2[nH]cnc12` ; pIC50 = 4.65
